system: KYSE-70 esophageal cancer cell line; test: Cell growth inhibition of KYSE-70 (Sulforhodamine B); format: cell-based; settings: Homo sapiens; KYSE-70, 72 hours; read-out: KYSE70 GI50
METRIC NAME: GI50

Find the recorded GI50 belonging to COc1cc(-c2cc(N3CC[C@H](N(C)C)C3)n3ncnc(N)c23)ccc1NC(=O)OC(C)(C)C [Example 11] and report it.
0.1 to 1 µM

Name the recorded GI50 for CNC1CCN(CCc2c(F)c(-c3ccc(NC(=O)OC(C)(C)C)c(OC)c3)c3c(N)ncnn23)CC1 [Example 130] .
≤ 0.1 µM

Tell me the measured GI50 of CNC1CCN(c2c(F)c(-c3ccc(NC(=O)OC(C)(C)C)c(OC)c3)c3c(N)ncnn23)CC1 [Example 129] , please.
≤ 0.1 µM

Find the recorded GI50 belonging to COc1cc(-c2cc(N3CCC4(CN(C)C4)C3)n3ncnc(N)c23)ccc1NC(=O)OC(C)(C)C [Example 37] and report it.
0.1 to 1 µM

Field request: GI50 | item: COCCN1CCN(c2cc(-c3ccc(NC(=O)OC(C)(C)C)c(OC)c3)c3c(N)ncnn23)CC1 [Example 29]
> 10 µM

# query: GI50 of entry COc1cc(-c2cc(N3CCC(CN)C(C)(C)C3)n3ncnc(N)c23)ccc1NC(=O)OC(C)(C)C (stereo not drawn) [Example 104]
0.1 to 1 µM

Returns the measured GI50 for the input compound. Input: COc1cc(-c2cc(-c3ccc(N(C)C)c(C)c3)n3ncnc(N)c23)ccc1NC(=O)OC(C)(C)C [Example 3]
> 10 µM

# GI50 lookup, item COc1cc(-c2cc(CCN3CCC(N(C)C)CC3)n3ncnc(N)c23)ccc1NC(=O)OC(C)(C)CF [Example 69]
≤ 0.1 µM

Given the entry COc1cc(-c2cc(N3CCC4(CC3)CC(=O)N4)n3ncnc(N)c23)ccc1NC(=O)OC(C)(C)C [Example 56] , report its measured GI50.
≤ 0.1 µM

Which GI50 is listed for CNCCC1CCN(c2c(C)c(-c3ccc(NC(=O)OC(C)(C)C)c(OC)c3)c3c(N)ncnn23)CC1 [Example 77] ?
0.1 to 1 µM

Query (compound): COc1cc(-c2cc(N3CCC(C(N)=O)CC3)n3ncnc(N)c23)ccc1NC(=O)OC(C)(C)C [Example 97] ; field requested: GI50
> 10 µM

Find the recorded GI50 belonging to COc1cc(-c2c(F)c(N3CCC(N)CC3)n3ncnc(N)c23)ccc1NC(=O)OC(C)(C)C [Example 127] and report it.
≤ 0.1 µM

I would be grateful if you could share the reported GI50 for COc1cc(-c2cc(N3CCC(N)CC3)n3ncnc(N)c23)ccc1NC(=O)c1ccco1 [Example 137] .
0.1 to 1 µM

Need GI50, item COc1cc(-c2cc(N3CCC(O)CC3)n3ncnc(N)c23)ccc1NC(=O)OC(C)(C)C [Example 90]
0.1 to 1 µM

For the compound shown here, COc1cc(-c2cc(N3CCC(N(C)C)CC3)n3ncnc(N)c23)ccc1NC(=O)OC(C)(C)C [Example 15] , give the reported GI50.
≤ 0.1 µM

Quick one: GI50 for COc1cc(-c2cc(N3CCC4(CCN(C)C4)CC3)n3ncnc(N)c23)ccc1NC(=O)OC(C)(C)C [Example 22] ?
0.1 to 1 µM

Name the reported GI50 value associated with the compound COc1cc(-c2cc(N3CCC4(CC3)CNC4=O)n3ncnc(N)c23)ccc1NC(=O)OC(C)(C)C [Example 55]
≤ 0.1 µM

# lookup: GI50 of CC1(OC(=O)Nc2ccc(-c3cc(N4CCC(N)CC4)n4ncnc(N)c34)c3c2OCO3)CC1 [Example 70]
0.1 to 1 µM

// query GI50 value for entry COc1cc(-c2cc(NCC3CCNCC3)n3ncnc(N)c23)ccc1NC(=O)OC(C)(C)C [Example 117]
0.1 to 1 µM

Entry under review: COc1cc(-c2cc(N3CCC(N)CC3)n3ncnc(N)c23)ccc1NC(=O)OC1(C)CC1 [Example 71] . Reported GI50?
≤ 0.1 µM

Please report the recorded GI50 for COc1cc(-c2cc(N3CCC4C(CCN4C)C3)n3ncnc(N)c23)ccc1NC(=O)OC(C)(C)C (stereo not drawn) [Example 26] .
1 to 10 µM

So what does the record say about GI50 for COc1cc(-c2cc(N3CCC(N)CC3)n3ncnc(N)c23)ccc1NC(=O)OC(C)(C)C(F)(F)F [Example 72] ?
0.1 to 1 µM

Field request: GI50 | item: COc1cc(-c2cc(-c3ccc(N(C)C)cc3C)n3ncnc(N)c23)ccc1NC(=O)OC(C)(C)C [Example 2]
> 10 µM

Name the reported GI50 value associated with the compound CCNC1CCN(c2cc(-c3ccc(NC(=O)OC(C)(C)C)c(OC)c3)c3c(N)ncnn23)CC1 [Example 92]
0.1 to 1 µM

Look up GI50 for this compound: COc1cc(-c2c(C)c(N3CCC(N)CC3)n3ncnc(N)c23)ccc1NC(=O)OC(C)(C)C [Example 74]
≤ 0.1 µM

What GI50 value was documented for this compound, COc1cc(-c2cc(N3CCC(CCN(C)C)CC3)n3ncnc(N)c23)ccc1NC(=O)OC(C)(C)C [Example 109] ?
≤ 0.1 µM

Recorded GI50 for COc1cc(-c2cc(N3CCC(C)(NC(C)=O)CC3)n3ncnc(N)c23)ccc1NC(=O)OC(C)(C)C [Example 96] , please?
> 10 µM

Entry COc1cc(-c2cc(N3CCC4NCCC4C3)n3ncnc(N)c23)ccc1NC(=O)OC(C)(C)C (stereo not drawn) [Example 25] has what GI50?
0.1 to 1 µM

If you can, please state the reported GI50 value of COc1cc(-c2cc(N[C@H]3C[C@H](N)C3)n3ncnc(N)c23)ccc1NC(=O)OC(C)(C)C [Example 119] .
0.1 to 1 µM

Sample COc1cc(-c2cc(N3CCC4(CC3)CN(C)C4)n3ncnc(N)c23)ccc1NC(=O)OC(C)(C)C [Example 21] — what was its GI50?
0.1 to 1 µM
